Hey, just so you know, these numbers are from patent US8637557B2.

# measuredOn: human PI 3-kinase p120γ (Homo sapiens, UniProt P48736)
# Construct: purchased Millipore Corporation
# Sequence (P48736 whole entry): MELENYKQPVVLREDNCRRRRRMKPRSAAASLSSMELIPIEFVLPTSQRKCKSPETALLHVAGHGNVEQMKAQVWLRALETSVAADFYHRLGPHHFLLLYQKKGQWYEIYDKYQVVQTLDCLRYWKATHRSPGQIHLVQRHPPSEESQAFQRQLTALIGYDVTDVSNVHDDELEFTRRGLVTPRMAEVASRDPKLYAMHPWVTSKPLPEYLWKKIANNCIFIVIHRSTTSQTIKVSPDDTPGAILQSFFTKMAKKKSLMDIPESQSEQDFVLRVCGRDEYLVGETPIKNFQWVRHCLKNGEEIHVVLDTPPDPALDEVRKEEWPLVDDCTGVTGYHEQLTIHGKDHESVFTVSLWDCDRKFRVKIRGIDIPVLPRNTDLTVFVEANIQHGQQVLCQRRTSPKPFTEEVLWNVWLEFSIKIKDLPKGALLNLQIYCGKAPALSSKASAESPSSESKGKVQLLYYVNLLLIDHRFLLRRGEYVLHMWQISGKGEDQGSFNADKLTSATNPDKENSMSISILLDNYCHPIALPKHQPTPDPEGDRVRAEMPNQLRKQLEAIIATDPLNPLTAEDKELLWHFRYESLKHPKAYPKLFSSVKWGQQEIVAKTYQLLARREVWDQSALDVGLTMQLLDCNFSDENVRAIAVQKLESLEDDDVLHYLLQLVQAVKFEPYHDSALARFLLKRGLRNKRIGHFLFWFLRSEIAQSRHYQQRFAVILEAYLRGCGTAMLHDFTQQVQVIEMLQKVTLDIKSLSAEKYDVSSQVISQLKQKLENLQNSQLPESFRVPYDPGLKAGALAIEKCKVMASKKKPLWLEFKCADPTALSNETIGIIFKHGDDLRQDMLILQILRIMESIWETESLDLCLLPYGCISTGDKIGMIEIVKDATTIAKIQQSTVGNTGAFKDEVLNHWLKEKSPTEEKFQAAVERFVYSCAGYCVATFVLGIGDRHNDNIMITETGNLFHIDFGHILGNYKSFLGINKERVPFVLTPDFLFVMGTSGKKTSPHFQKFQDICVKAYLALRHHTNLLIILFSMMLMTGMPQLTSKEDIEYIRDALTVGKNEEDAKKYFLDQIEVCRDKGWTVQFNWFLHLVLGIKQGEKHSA
# procedureText: PI 3-kinase p120γ enzyme activity inhibition test
# Type: biochemical
# testContext: ATP 10.0 μM, PIP2-PS 5.0 μM, 30° C., 2 hours; read-out: PI3Kγ (IC50 value class)
attributeMeasured: IC50

IC50 in this record for CC(=O)Nc1nc(C)c(-c2nc(Cc3cccc(CO)c3)no2)s1 : 500 to 10000 nM

// IC50 value for Cc1nc(NC(=O)CCNC(=O)OC(C)(C)C)sc1-c1nc(CC(C)(C)CO)no1 : 100 to 500 nM

The reported value for CC(=O)Nc1nc(C)c(-c2nc(CC(C)O)no2)s1 (centres unmarked) in terms of IC50 is 100 to 500 nM

Entry under test: CC(=O)Nc1nc(C)c(-c2nc(C(C)NS(C)(=O)=O)no2)s1 (centres unmarked) . Its IC50 was 500 to 10000 nM

Just so you know, measured IC50 for CC(=O)Nc1nc(C)c(-c2nc(CC(C)(C)CO)no2)s1 came out at < 100 nM

# molecule CCOC(=O)c1noc(-c2sc(NC(C)=O)nc2C)n1 ; its IC50 = 100 to 500 nM

* * *

# measuredOn: human PI 3-kinase p120γ (Homo sapiens)
# Construct: purchased Millipore Corporation
# procedureText: PI 3-kinase p120γ enzyme activity inhibition test
# Type: biochemical
# testContext: ATP 10.0 μM, PIP2-PS 5.0 μM, 30° C., 2 hours; read-out: PI3Kγ (IC50 value class)
Each item that follows carries a reported IC50.

Cc1nc(NC(=O)NCC(C)O)sc1-c1nc(-c2cccc(O)c2)no1 (centres unmarked)	< 100 nM
CCOC(C)(OCC)c1noc(-c2sc(NC(C)=O)nc2C)n1	500 to 10000 nM
Cc1nc(NC(=O)NCCc2ccccn2)sc1-c1nc(-c2cccnc2)no1	< 100 nM
CC(=O)Nc1nc(C)c(-c2nc(-c3cccc(CO)c3)no2)s1	< 100 nM

Continue with the molecule presented below.
Record CC(=O)Nc1nc(C)c(-c2nc(-c3cncc(O)c3)no2)s1 , field IC50: < 100 nM

* * *

# measuredOn: human PI 3-kinase p120γ (Homo sapiens, UniProt P48736)
# Construct: purchased Millipore Corporation
# procedureText: PI 3-kinase p120γ enzyme activity inhibition test
# Type: biochemical
# testContext: ATP 10.0 μM, PIP2-PS 5.0 μM, 30° C., 2 hours; read-out: PI3Kγ (IC50 value class)
pIC50: −log10 of the molar value.
attributeMeasured: pIC50

Check out these entries, answers already filled in.
CC(=O)Nc1nc(C)c(-c2nc(C(C)=O)no2)s1	> 7.00
CC(=O)Nc1nc(C)c(-c2nc(CC3CCOCC3)no2)s1	6.30 to 7.00

Recorded pIC50 (compound CC(=O)Nc1nc(C)c(-c2nc(-c3cnccc3C)no2)s1 ): > 7.00

For reference, reported pIC50 for CNCc1noc(-c2sc(NC(C)=O)nc2C)n1 stands at 5.00 to 6.30

Record summary for CC(=O)Nc1nc(C)c(-c2nc(-c3ccc(CO)cc3)no2)s1 : reported pIC50 = > 7.00

* * *

Attribute: IC50
# measuredOn: human PI 3-kinase p120γ (Homo sapiens, UniProt P48736)
# Construct: purchased Millipore Corporation
# procedureText: PI 3-kinase p120γ enzyme activity inhibition test
# Type: biochemical
# testContext: ATP 10.0 μM, PIP2-PS 5.0 μM, 30° C., 2 hours; read-out: PI3Kγ (IC50 value class)

Field: example entries. Status: answers known.
CC(=O)Nc1nc(C)c(-c2nc(-c3ccncc3)no2)s1 [Example 11]	500 to 10000 nM
CC(=O)Nc1nc(C)c(-c2nc(CCCCOC(C)=O)no2)s1 [Example 59]	500 to 10000 nM
Cc1nc(N)sc1-c1nc(CC(C)(C)CO)no1 [Example 156]	< 100 nM

// recorded IC50 for Cc1nc(NC(=O)NCCC(=O)N(C)C)sc1-c1nc(-c2cccnc2)no1 [Example 131] : < 100 nM

Per the records, this compound ( CC(=O)Nc1nc(C)c(-c2nc(CC(C)(C)O)no2)s1 [Example 34] ) has IC50 equal to < 100 nM
